Ref: PubChem BioAssay AID1259334

test system: B cell line, TNFa signaling counterscreen reporter; assay: TNFa signaling inhibitors in B cell line, dose response, counter-screen (AID 1259334);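 note: cells stimulated with TNFa after compound preincubation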
MEASUREMENT NAME: AC50

1) O=C1NC2C(O)C(O)C(O)C(O)C2c2cc3c(c(O)c21)OCO3 (stereo not given) ... 0.125 µM
2) O=C1NC2c3c(Cl)sc(Cl)c3C(=O)C2O1 (stereo not given) ... 4.18 µM
3) C[C@@H]1O[C@@H](O[C@H]2C[C@@H](O)[C@]3(CO)C4C(CC[C@]3(O)C2)[C@@]2(O)CC[C@H](C3=CC(=O)OC3)[C@@]2(C)C[C@H]4O)[C@H](O)[C@H](O)[C@H]1O (stereo not given in full) ... 0.138 µM
4) Cc1ccc(S(=O)(=O)CCC(=O)N(CCCN2CCOCC2)c2nc3ccccc3s2)cc1 ... 7.38 µM
5) O=C(Nc1ccc(C(F)(F)F)cc1)N1C[C@@H]2N[C@H](C1)C2c1ccc(-c2ccccc2)cc1 (stereo not given in full) ... 3.28 µM
6) COc1ccc(CNCCC(c2ccc(F)cc2)c2ccc(OC(C)C)cc2)cc1OC (stereo not given) ... 3.5 µM
7) CCN(CC)CCCNc1nc2ccccc2c2[nH]c3ccc(OC)cc3c12 ... 2.11 µM
8) c1ccn2cc(-c3ccc4c(c3)OCCO4)nc2c1 ... 9.69 µM
9) N#C[C@@H]1[C@H](c2ccc(C#Cc3ccc(F)cc3)cc2)[C@@H](CO)N1C(=O)C1CCC1 ... 10.7 µM
10) O=C(c1nnsc1S(=O)(=O)c1ccc(Cl)cc1)N1CCOCC1 ... 2.07 µM

---

test system: B cell line, TNFa signaling counterscreen reporter; assay: TNFa signaling inhibitors in B cell line, dose response, counter-screen (AID 1259334);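 note: cells stimulated with TNFa after compound preincubation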
Active and inactive are the calls of the source. No stated cut-off is given here; in the data, active means AC50 below about 11 µM.
Classes used: true (1) = active, false (0) = inactive

1. Cc1ccsc1C(=O)OCC(=O)c1cc(C)n(CC2CCCO2)c1C (centres undefined) ... true (1)
2. O=C(Cc1ccccc1)N1CC[C@@H]2[C@H]1c1cc(C#Cc3cccc(F)c3)ccc1N[C@@H]2CO ... true (1)
3. c1ccc2sc(-c3ccc4c(c3)OCO4)nc2c1 ... true (1)
4. O=c1cc(-c2ccc(O)cc2)oc2ccc3ccccc3c12 ... true (1)
5. O=C(C[C@@H]1CC[C@@H]2[C@H](COC[C@H](O)CN2Cc2cc(F)ccc2F)O1)NCc1ccc(Oc2ccccc2)cc1 ... true (1)
6. C[C@H](CO)N1C[C@H](C)[C@@H](CN(C)Cc2ccc(Cl)c(Cl)c2)OCCCC[C@H](C)Oc2ccc(NS(=O)(=O)c3cccs3)cc2C1=O ... true (1)
7. Cc1ccc(OC(=O)N(C)C[C@@H]2OCc3ccccc3-c3c(n(C)c4ccccc34)C(=O)N([C@@H](C)CO)C[C@H]2C)cc1 ... true (1)
8. CC(=O)OCC(=O)C1(O)CCC2C3CCC4=CC(=O)CCC4(C)C3(Cl)C(O)CC21C (centres undefined) ... false (0)
9. O=C(/C=C/c1cccs1)c1ccc(N2CCOCC2)cc1 ... true (1)

---

test system: B cell line, TNFa signaling counterscreen reporter; experiment: TNFa signaling inhibitors in B cell line, dose response, counter-screen (AID 1259334);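 note: cells stimulated with TNFa after compound preincubation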
Active and inactive are the calls of the source. No stated cut-off is given here; in the data, active means AC50 below about 11 µM.
Classes used: active, inactive

1) O=C(NCCc1ccccc1)c1ccc2nccnc2c1 ... active
2) C[C@H]1O[C@@H](O[C@H]2[C@@H](O)C[C@H](O[C@H]3[C@@H](O)C[C@H](O[C@H]4CC[C@]5(C)C6C[C@@H](O)[C@]7(C)[C@@H](C8=CC(=O)OC8)CC[C@]7(O)C6CC[C@@H]5C4)O[C@@H]3C)O[C@@H]2C)C[C@H](O)[C@@H]1O (stereo partly drawn) ... active
3) O=C(/C=C/c1ccccc1)CC(O)(c1ccccc1)C(F)(F)C(F)F (stereo not drawn) ... active
4) CC1CC(C)C(=NNC(N)=O)C(C(O)CC2CCC(=O)NC2=O)C1 (stereo not drawn) ... active
5) O=C(Nc1ccccc1F)N1C[C@@H]2N[C@H](C1)C2c1ccc(/C=C/c2ccccc2)cc1 (stereo partly drawn) ... active
6) CC[C@@]1(O)C(=O)OCc2c1cc1n(c2=O)Cc2cc3c(CN(C)C)c(O)ccc3nc2-1 ... active
7) C[C@H]1O[C@@H](O[C@H]2[C@@H](O)C[C@H](O[C@H]3[C@@H](O)C[C@H](O[C@H]4CC[C@]5(C)C6CC[C@]7(C)[C@@H](C8=CC(=O)OC8)CC[C@]7(O)C6CC[C@@H]5C4)O[C@@H]3C)O[C@@H]2C)C[C@H](O)[C@@H]1O (stereo partly drawn) ... active
8) C[C@@H]1CN([C@@H](C)CO)C(=O)c2c(c3ccccc3n2C)-c2ccccc2CO[C@@H]1CN(C)Cc1ccccc1C(F)(F)F ... inactive
